From: the Human Domainome abundance scans (Beltran et al. 2025)

B1: Max-interacting protein 1, residues 70 to 120; numbered along this chain, P50539 (parent)
chain: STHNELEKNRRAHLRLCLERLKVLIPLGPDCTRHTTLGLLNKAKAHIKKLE

# Variants of: B1
# EXPERIMENTAL DETAILS: abundance fitness (aPCA) (normalised: wild type 0, dead -1); higher = more abundant; growth selection in yeast, the domain comes from the species named
# CONDITION DESCRIPTION: Homo sapiens
READOUT KIND: abundance fitness

q: Return reported abundance fitness; argument: STHNELEKNRRAHLRLILERLKVLIPLGPDCTRHTTLGLLNKAKAHIKKLE [C17I]
a: -0.617

q: Same for STHNELEKNRRAHLRLCLERLKVLIPLGPDCTRHTTLGLLNKIKAHIKKLE [A43I]
a: -0.2

q: Also check STHNELEKNRRAHLRLCLERLKVLIPLGPDTTRHTTLGLLNKAKAHIKKLE [C31T]
a: -0.034

q: Ok, now STHNELEVNRRAHLRLCLERLKVLIPLGPDCTRHTTLGLLNKAKAHIKKLE [K8V]
a: -0.338

q: STHRELEKNRRAHLRLCLERLKVLIPLGPDCTRHTTLGLLNKAKAHIKKLE [N4R] ?
a: -0.255

q: Continue with STHNRLEKNRRAHLRLCLERLKVLIPLGPDCTRHTTLGLLNKAKAHIKKLE [E5R]
a: -0.27

q: Try this variant too: STHNELELNRRAHLRLCLERLKVLIPLGPDCTRHTTLGLLNKAKAHIKKLE [K8L]
a: -0.232

q: Next: SLHNELEKNRRAHLRLCLERLKVLIPLGPDCTRHTTLGLLNKAKAHIKKLE [T2L]
a: -0.519

q: Now this one: STHNELEKNRRAHLRLCLERLKVLIPLGPDCTRHTTLGLLNKAKAHIFKLE [K48F]
a: -0.093

q: Try this variant too: STHNELEKNRRAHLRLCLHRLKVLIPLGPDCTRHTTLGLLNKAKAHIKKLE [E19H]
a: -0.236

q: Cool, now STHNELEKNRRAHLRLCLERLKVLIPLGPDCTRHTTLGLFNKAKAHIKKLE [L40F]
a: 0.033

q: Moving on to the next variant: SKHNELEKNRRAHLRLCLERLKVLIPLGPDCTRHTTLGLLNKAKAHIKKLE [T2K]
a: 0.002

q: Please do the same for STHNELEKNRRAHLRLCLERLKVLIPLGPDLTRHTTLGLLNKAKAHIKKLE [C31L] as well.
a: 0

q: Entry to check: STHNELEKNRRAHLRLCLERLKVLIPLGPDCTRHTTLGLLNEAKAHIKKLE [K42E]
a: -0.716

q: For STHNELEKNRRAHLRLCLSRLKVLIPLGPDCTRHTTLGLLNKAKAHIKKLE [E19S] then?
a: -0.083

q: Same question, STHNELEKNRRAHLRLCLERLKVLLPLGPDCTRHTTLGLLNKAKAHIKKLE [I25L] this time
a: -0.172

q: And then STHNELEKNRRAHLRLCLERLKVLIPLGPDCTRHTTLGLLNKAKAHIYKLE [K48Y] , what is it?
a: 0.026

q: Queued: STHNELEKNRRAHLRLCLERLSVLIPLGPDCTRHTTLGLLNKAKAHIKKLE [K22S]
a: -0.536

q: Then STHNELEKNRRAHLRLCLERLKVLIPLGPDCTRHTTLGLLNKAKGHIKKLE [A45G] ?
a: -0.447

q: One more variant: STHNELEKNRRAHLRLCLERLKVLIPLGPDCTRHTFLGLLNKAKAHIKKLE [T36F]
a: 0.155

q: Same lookup for ETHNELEKNRRAHLRLCLERLKVLIPLGPDCTRHTTLGLLNKAKAHIKKLE [S1E] , please.
a: -0.48

q: What would you report for STHNELEKNRRAHLRLCLERLKVLIPLGPDCTRHTTLGLLNKAKAHIKFLE [K49F] ?
a: -0.045
